The reported measurements were obtained from ChEMBL document CHEMBL3351936.

system: MCF7; experiment: Antiproliferative activity against human MCF7 cells assessed as cell-growth inhibition after 48 hrs by MTT assay; format: functional, cell-based; conditions: MCF7, 48 h
pIC50: −log10 of the molar value.
experimental.endpoint: pIC50

>>> endpoint_result("CC(C)(O)CCC[C@@](C)(O)[C@H]1CC[C@]2(C)[C@@H]1[C@H](O)C[C@@H]1[C@@]3(C)CC[C@H](O)C(C)(C)[C@@H]3CC[C@]12C")
4.30
>>> endpoint_result("CC(C)(O)CCC[C@@](C)(O)[C@H]1CC[C@]2(C)[C@@H]1[C@H](OC(=O)CCl)C[C@@H]1[C@@]3(C)CC[C@H](OC(=O)CCl)C(C)(C)[C@@H]3CC[C@]12C")
4.42
>>> endpoint_result("C=C(CCCC(C)(C)OC(=O)CCl)[C@H]1CC[C@]2(C)[C@@H]1[C@H](O)C[C@@H]1[C@@]3(C)CC[C@H](O)C(C)(C)[C@@H]3CC[C@]12C")
4.97
>>> endpoint_result("CC(=O)O[C@H]1CC[C@]2(C)[C@H]3C[C@@H](OC(C)=O)[C@@H]4[C@@H]([C@](C)(O)CCCC(C)(C)O)CC[C@@]4(C)[C@]3(C)CC[C@H]2C1(C)C")
4.63
>>> endpoint_result("C/C(=C/CCC(C)(C)O)[C@H]1CC[C@]2(C)[C@@H]1[C@H](OC(=O)CCl)C[C@@H]1[C@@]3(C)CC[C@H](OC(=O)CCl)C(C)(C)[C@@H]3CC[C@]12C")
5.80
>>> endpoint_result("C=C(CCCC(C)(C)O)[C@H]1CC[C@]2(C)[C@@H]1[C@H](OC(=O)CCl)C[C@@H]1[C@@]3(C)CC[C@H](OC(=O)CCl)C(C)(C)[C@@H]3CC[C@]12C")
5.77
>>> endpoint_result("CC(C)(O)CCC[C@@](C)(O)[C@H]1CC[C@]2(C)[C@@H]1[C@H](OC(=O)CCl)C[C@@H]1[C@@]3(C)CC[C@H](O)C(C)(C)[C@@H]3CC[C@]12C")
4.58
>>> endpoint_result("CC(C)(CCC[C@@](C)(OC(=O)CCl)[C@H]1CC[C@]2(C)[C@@H]1[C@H](O)C[C@@H]1[C@@]3(C)CC[C@H](O)C(C)(C)[C@@H]3CC[C@]12C)OC(=O)CCl")
4.92
>>> endpoint_result("CC(C)(CCC[C@@](C)(O)[C@H]1CC[C@]2(C)[C@@H]1[C@H](O)C[C@@H]1[C@@]3(C)CC[C@H](OC(=O)CCl)C(C)(C)[C@@H]3CC[C@]12C)OC(=O)CCl")
5.43
>>> endpoint_result("C/C(=C/CCC(C)(C)O)[C@H]1CC[C@]2(C)[C@@H]1[C@H](OC(=O)CCl)C[C@@H]1[C@@]3(C)CC[C@H](O)C(C)(C)[C@@H]3CC[C@]12C")
4.42
>>> endpoint_result("C/C(=C/CCC(C)(C)OC(=O)CCl)[C@H]1CC[C@]2(C)[C@@H]1[C@H](O)C[C@@H]1[C@@]3(C)CC[C@H](OC(=O)CCl)C(C)(C)[C@@H]3CC[C@]12C")
5.10

###

assay: Antiproliferative activity against human U87 cells assessed as cell-growth inhibition after 48 hrs by MTT assay; assay type: functional, cell-based, U-87MG ATCC; details: U-87 MG
Listed below: IC50 values for each entry.
experimental.endpoint: IC50 (µM)

>>> endpoint_result("C=C(CCCC(C)(C)O)[C@H]1CC[C@]2(C)[C@@H]1[C@H](OC(=O)CCl)C[C@@H]1[C@@]3(C)CC[C@H](OC(=O)CCl)C(C)(C)[C@@H]3CC[C@]12C")
22.8
>>> endpoint_result("CC(C)(O)CCC[C@@](C)(O)[C@H]1CC[C@]2(C)[C@@H]1[C@H](O)C[C@@H]1[C@@]3(C)CC[C@H](O)C(C)(C)[C@@H]3CC[C@]12C")
27.5
>>> endpoint_result("C=C(CCCC(C)(C)O)[C@H]1CC[C@]2(C)[C@@H]1[C@H](OC(=O)CCl)C[C@@H]1[C@@]3(C)CC[C@H](O)C(C)(C)[C@@H]3CC[C@]12C")
24.6
